Source: patent US12522601B2

Molecular target: human recombinant HDAC6 (Homo sapiens)
Sequence (Q9UBN7 1-1215): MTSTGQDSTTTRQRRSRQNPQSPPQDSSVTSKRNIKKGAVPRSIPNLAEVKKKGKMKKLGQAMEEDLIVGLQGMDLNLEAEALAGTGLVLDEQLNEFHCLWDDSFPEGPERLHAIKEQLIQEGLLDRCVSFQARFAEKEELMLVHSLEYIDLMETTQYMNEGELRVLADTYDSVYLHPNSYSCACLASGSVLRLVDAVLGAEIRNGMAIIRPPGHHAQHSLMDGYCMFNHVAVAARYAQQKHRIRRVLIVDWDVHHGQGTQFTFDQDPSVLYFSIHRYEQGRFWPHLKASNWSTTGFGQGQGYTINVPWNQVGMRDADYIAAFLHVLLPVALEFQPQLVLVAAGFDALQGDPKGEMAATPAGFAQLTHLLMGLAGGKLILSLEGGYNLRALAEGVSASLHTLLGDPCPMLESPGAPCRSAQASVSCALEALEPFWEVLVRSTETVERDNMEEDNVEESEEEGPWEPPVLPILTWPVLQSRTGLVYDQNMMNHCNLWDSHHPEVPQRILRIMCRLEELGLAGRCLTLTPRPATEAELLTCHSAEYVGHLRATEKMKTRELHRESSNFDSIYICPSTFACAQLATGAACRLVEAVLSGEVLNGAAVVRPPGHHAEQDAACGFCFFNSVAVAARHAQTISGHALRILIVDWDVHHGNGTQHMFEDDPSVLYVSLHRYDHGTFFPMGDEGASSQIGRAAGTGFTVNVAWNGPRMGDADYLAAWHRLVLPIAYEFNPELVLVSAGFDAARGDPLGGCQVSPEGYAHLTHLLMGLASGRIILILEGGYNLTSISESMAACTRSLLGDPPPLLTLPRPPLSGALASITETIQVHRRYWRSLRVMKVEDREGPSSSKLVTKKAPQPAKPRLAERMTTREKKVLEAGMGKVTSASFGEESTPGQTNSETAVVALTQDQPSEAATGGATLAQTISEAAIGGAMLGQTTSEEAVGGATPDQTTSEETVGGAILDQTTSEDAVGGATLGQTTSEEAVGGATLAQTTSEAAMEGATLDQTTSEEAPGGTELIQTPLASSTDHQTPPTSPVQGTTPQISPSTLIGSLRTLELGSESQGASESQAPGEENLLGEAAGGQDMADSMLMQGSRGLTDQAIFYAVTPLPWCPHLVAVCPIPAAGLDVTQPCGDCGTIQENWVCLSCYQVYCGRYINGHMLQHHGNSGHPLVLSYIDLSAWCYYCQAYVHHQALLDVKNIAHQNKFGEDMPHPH
Assay: In vitro HDAC enzyme activity inhibition assay, HDAC6 (HDAC Fluorimetric Drug Discovery Kit)
Settings: human recombinant HDAC6, same protocol as the HDAC1 test
Entries and their pIC50 values follow.
Units for pIC50: none; it is -log10 of a concentration expressed in mol/L.

Worked examples, 3 compounds total:
>  <smiles.structure>
O=C(CO)N1CCC(C(=O)N(Cc2cn3ccc(-c4nnc(C(F)F)o4)cc3n2)c2ccccc2)CC1

>  <recorded.measurement>
6.47

$$$$
>  <smiles.structure>
O=C(C1CCN(c2ncccn2)CC1)N(Cc1cn2ccc(-c3nnc(C(F)F)o3)cc2n1)c1cccc(F)c1

>  <recorded.measurement>
6.79

$$$$
>  <smiles.structure>
CN1CC(C(=O)N(Cc2cn3ccc(-c4nnc(C(F)F)o4)cc3n2)c2ccccc2)C1

>  <recorded.measurement>
6.35

$$$$

Qu. Look up pIC50: CC(=O)c1cccc(NCc2cn3ccc(-c4nnc(C(F)F)o4)cc3n2)c1
Ans. 6.93

Qu. Look up pIC50: Cc1cccc(OCc2cn3ccc(-c4nnc(C(F)F)o4)cc3n2)c1
Ans. 6.38

###

biological target: human recombinant HDAC6 (Homo sapiens, UniProt Q9UBN7); construct: purchased Calbiochem Inc. 382180; assay: In vitro HDAC enzyme activity inhibition assay, HDAC6 (HDAC Fluorimetric Drug Discovery Kit); type: biochemical; conditions: HDAC6 versus HDAC1
Entries and their HDAC6 Selectivity (fold) values follow.
Give the value, in units of fold, as a plain number.

Qu. Look up HDAC6 Selectivity (fold): O=C(N1CCN(C2CCCCC2)CC1)N(Cc1cn2ccc(-c3nnc(C(F)F)o3)cc2n1)c1cccc(F)c1
Ans. 113

Qu. Look up HDAC6 Selectivity (fold): CCN1CCN(C(=O)N(Cc2cn3ccc(-c4nnc(C(F)F)o4)cc3n2)c2ccccc2)CC1
Ans. 538

Qu. Look up HDAC6 Selectivity (fold): FC(F)c1nnc(-c2ccn3cc(Cc4ccc(C(F)(F)F)cc4)nc3c2)o1
Ans. 47

Qu. Look up HDAC6 Selectivity (fold): CS(=O)(=O)N1CC(C(=O)N(Cc2cn3ccc(-c4nnc(C(F)F)o4)cc3n2)c2cccc(F)c2)C1
Ans. 295

Qu. Look up HDAC6 Selectivity (fold): CC(CO)N1CC(C(=O)N(Cc2cn3ccc(-c4nnc(C(F)F)o4)cc3n2)c2ccccc2)C1 (stereo not drawn)
Ans. 224

Qu. Look up HDAC6 Selectivity (fold): CS(=O)(=O)N1CCN(C(=O)N(Cc2cn3ccc(-c4nnc(C(F)F)o4)cc3n2)c2ccccc2)CC1
Ans. 392

Qu. Look up HDAC6 Selectivity (fold): O=C(N1CCN(C2CCC(F)(F)CC2)CC1)N(Cc1cn2ccc(-c3nnc(C(F)F)o3)cc2n1)c1cccc(F)c1
Ans. 194

Qu. Look up HDAC6 Selectivity (fold): O=C(C1CN(c2ncccn2)C1)N(Cc1cn2ccc(-c3nnc(C(F)F)o3)cc2n1)c1cccc(F)c1
Ans. 298

Qu. Look up HDAC6 Selectivity (fold): O=C(C1CN(C2CCC2)C1)N(Cc1cn2ccc(-c3nnc(C(F)F)o3)cc2n1)c1ccccc1
Ans. 140

Qu. Look up HDAC6 Selectivity (fold): CCC(=O)N1CC(C(=O)N(Cc2cn3ccc(-c4nnc(C(F)F)o4)cc3n2)c2cccc(F)c2)C1
Ans. 271

Qu. Look up HDAC6 Selectivity (fold): O=C(N1CCN(C2CC3(CCC3)C2)CC1)N(Cc1cn2ccc(-c3nnc(C(F)F)o3)cc2n1)c1cccc(F)c1
Ans. 190

Qu. Look up HDAC6 Selectivity (fold): O=C(C1CCN(C(=O)C(F)(F)F)CC1)N(Cc1cn2ccc(-c3nnc(C(F)F)o3)cc2n1)c1cccc(F)c1
Ans. 245

Qu. Look up HDAC6 Selectivity (fold): O=C(C1COC1)N1CCC(C(=O)N(Cc2cn3ccc(-c4nnc(C(F)F)o4)cc3n2)c2cccc(F)c2)CC1
Ans. 245

Qu. Look up HDAC6 Selectivity (fold): O=C(C1CN(C2CCCCC2)C1)N(Cc1cn2ccc(-c3nnc(C(F)F)o3)cc2n1)c1cccc(F)c1
Ans. 379

Qu. Look up HDAC6 Selectivity (fold): O=C(C1COC1)N1CCN(C(=O)N(Cc2cn3ccc(-c4nnc(C(F)F)o4)cc3n2)c2ccccc2)CC1
Ans. 164

###

Biological target: human recombinant HDAC6 (Homo sapiens, UniProt Q9UBN7)
Sequence (Q9UBN7 1-1215): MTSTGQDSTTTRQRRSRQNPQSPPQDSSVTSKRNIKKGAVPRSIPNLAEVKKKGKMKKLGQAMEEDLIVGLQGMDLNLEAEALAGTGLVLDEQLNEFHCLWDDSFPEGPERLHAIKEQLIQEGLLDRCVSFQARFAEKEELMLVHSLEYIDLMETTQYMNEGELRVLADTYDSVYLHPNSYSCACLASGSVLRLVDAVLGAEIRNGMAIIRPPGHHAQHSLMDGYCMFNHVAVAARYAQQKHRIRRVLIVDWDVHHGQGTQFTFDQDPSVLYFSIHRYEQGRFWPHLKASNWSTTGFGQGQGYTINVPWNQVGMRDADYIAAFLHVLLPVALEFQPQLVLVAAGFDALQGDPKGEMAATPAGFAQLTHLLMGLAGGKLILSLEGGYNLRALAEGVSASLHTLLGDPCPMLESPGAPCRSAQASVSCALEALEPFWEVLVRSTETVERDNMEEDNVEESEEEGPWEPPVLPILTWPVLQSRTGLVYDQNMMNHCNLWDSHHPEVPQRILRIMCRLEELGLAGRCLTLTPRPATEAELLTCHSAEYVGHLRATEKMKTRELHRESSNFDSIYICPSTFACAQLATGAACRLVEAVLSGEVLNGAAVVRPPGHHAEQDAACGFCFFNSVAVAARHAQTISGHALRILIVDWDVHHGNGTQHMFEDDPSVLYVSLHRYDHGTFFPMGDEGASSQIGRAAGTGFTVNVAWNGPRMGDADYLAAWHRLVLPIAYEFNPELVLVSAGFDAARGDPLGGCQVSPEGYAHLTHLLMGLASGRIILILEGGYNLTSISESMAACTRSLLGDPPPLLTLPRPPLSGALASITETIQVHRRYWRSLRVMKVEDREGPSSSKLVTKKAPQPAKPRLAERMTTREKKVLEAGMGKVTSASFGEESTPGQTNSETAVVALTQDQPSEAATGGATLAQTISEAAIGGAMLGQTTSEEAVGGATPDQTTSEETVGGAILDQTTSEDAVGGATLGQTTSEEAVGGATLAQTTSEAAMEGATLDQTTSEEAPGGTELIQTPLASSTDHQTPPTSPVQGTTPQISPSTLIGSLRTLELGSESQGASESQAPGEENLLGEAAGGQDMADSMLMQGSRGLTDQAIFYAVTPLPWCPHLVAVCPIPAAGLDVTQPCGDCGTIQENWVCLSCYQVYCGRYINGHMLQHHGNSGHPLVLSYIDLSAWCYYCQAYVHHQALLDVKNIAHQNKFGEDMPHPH
Assay: In vitro HDAC enzyme activity inhibition assay, HDAC6 (HDAC Fluorimetric Drug Discovery Kit)
Settings: human recombinant HDAC6, same protocol as the HDAC1 test
Description: In order to confirm the selectivity of the compounds represented by Chemical Formula I of the present invention to HDAC6 through HDAC1 and HDAC6 enzyme activity inhibition experiments, a comparison experiment was performed using the material that has already been developed as a control group. HDAC enzyme activity was measured using the HDAC Fluorimetric Drug Discovery Kit (Enzo Life Sciences, Inc., BML-AK511, 516). […]
Label satisfied when IC50 is strictly below 200 nM; at or above that, label not satisfied.

Some solved entries appear below for comparison.
>  <compound>
O=C(CO)N1CC(C(=O)N(Cc2cn3ccc(-c4nnc(C(F)F)o4)cc3n2)c2ccccc2)C1 [Compound 4169]

>  <system.name>
human recombinant HDAC6 (Homo sapiens, UniProt Q9UBN7)

>  <category.label>
not satisfied

$$$$
>  <compound>
Fc1cccc(NCc2cn3ccc(-c4nnc(C(F)F)o4)cc3n2)c1 [Compound 3670]

>  <system.name>
human recombinant HDAC6 (Homo sapiens, UniProt Q9UBN7)

>  <category.label>
not satisfied

$$$$

Qu. Confirm or reject: IC50 of FC(F)c1nnc(-c2ccn3cc(Cc4ccc5c(c4)OCO5)nc3c2)o1 [Compound 3596] lies strictly below 200 nM
Ans. not satisfied

Qu. Confirm or reject: IC50 of O=C(N1CCN(C2CC3(CCC3)C2)CC1)N(Cc1cn2ccc(-c3nnc(C(F)F)o3)cc2n1)c1cccc(F)c1 [Compound 4620] lies strictly below 200 nM
Ans. not satisfied
